From: PubChem BioAssay (NCI)

Test system: OVCAR-4 ovarian
Assay: NCI tumour cell line growth inhibition, 48 h
assay endpoint: TGI (µM)
Respond with the bare value in µM.

[in] Please report the recorded TGI for "Clc1ccc(C(c2ccc(Cl)cc2)N2CCNCC2)cc1" .
[out] 6.95

[in] Please report the recorded TGI for "CCC/C(Cl)=N\OC(=O)Nc1ccc(F)c([N+](=O)[O-])c1" .
[out] 28.9

====

System: 786-0 renal
Test: NCI tumour cell line growth inhibition, 48 h
// label = fulfilled if TGI is not less than 4 µM, otherwise not fulfilled

[in] Hi team, for "O=C(NCCN1CCC(O)CC1)c1cc2c(o1)C(=O)c1ccccc1C2=O" , is the recorded TGI at or above 4 µM?
[out] not fulfilled

[in] Hi team, for "NC(=O)c1ncn2c(=O)n(CCl)nnc12" , is the recorded TGI at or above 4 µM?
[out] fulfilled

[in] Hi team, for "NC(CC(=O)Nc1ccc(Cl)cc1)=Nc1ccccc1" , is the recorded TGI at or above 4 µM?
[out] fulfilled

[in] Hi team, for "CCCCOC(=O)c1ccc(NC(=O)CCl)cc1" , is the recorded TGI at or above 4 µM?
[out] not fulfilled

[in] Hi team, for "Cn1c(/C=C(\C#N)c2cccc(C(F)(F)F)c2)nc2c(N3CCOCC3)nc(Cl)nc21" , is the recorded TGI at or above 4 µM?
[out] not fulfilled

[in] Hi team, for O=CC(Br)C(Br)c1ccccc1 (stereo not given) , is the recorded TGI at or above 4 µM?
[out] fulfilled

[in] Hi team, for O=C1[C@H]2ON(c3ccccc3)C(c3ccccc3F)[C@H]2C(=O)N1c1ccc(Cc2ccc(N3C(=O)[C@@H]4ON(c5ccccc5)C(c5ccccc5F)[C@@H]4C3=O)cc2)cc1 (stereo not given in full) , is the recorded TGI at or above 4 µM?
[out] fulfilled

[in] Hi team, for "CN(C)CCNC(=O)c1cccc2[nH]c(-c3ccncc3)nc12" , is the recorded TGI at or above 4 µM?
[out] fulfilled

[in] Hi team, for Fc1cccc(CSc2ncnc3c2ncn3C2CCCS2)c1 (stereo not given) , is the recorded TGI at or above 4 µM?
[out] fulfilled

[in] Hi team, for "CCCOC(=O)N[C@H]1CCc2cc(OC)c(OC)c(OC)c2-c2ccc(SC)c(=O)cc21" , is the recorded TGI at or above 4 µM?
[out] fulfilled

====

Tested on: MOLT-4 leukemia
Assay: NCI tumour cell line growth inhibition, 48 h; in the data active means GI50 below about 0.43 µM; inactive means the rest
Mark one answer only. Choices: 1 (yes) for active, 0 (no) for inactive

[in] Record request — test call for "O=C(NCCN1CCC(O)CC1)c1cc2c(o1)C(=O)c1ccccc1C2=O"
[out] 1 (yes)

[in] Record request — test call for "C[C@@H](NC(=O)[C@@H](CC(=O)N1CCC(N2CCCCC2)CC1)N1C(=O)[C@@H](N2C(=O)OC[C@@H]2c2ccccc2)[C@H]1/C=C/c1cccc(Cl)c1)c1ccccc1"
[out] 0 (no)

[in] Record request — test call for "O=c1oc(-c2ccccc2)cc2cccc(O)c12"
[out] 0 (no)

[in] Record request — test call for "COc1ccc2nc3cc([N+](=O)[O-])ccc3c(NCCCN(CCO)CCO)c2c1"
[out] 0 (no)

[in] Record request — test call for "CN[C@@H]1C[C@H]2O[C@@](C)([C@@H]1OC)n1c3ccccc3c3c4c(c5c6ccccc6n2c5c31)C(=O)N[C@H]4O"
[out] 1 (yes)

[in] Record request — test call for "COc1ccc(-c2cn(-c3cccc(C(=O)/C=C/c4ccc(O)c(OC)c4)c3)c(=O)[nH]2)cc1"
[out] 0 (no)

[in] Record request — test call for "COc1ccc(-c2nn(-c3cccc(Cl)c3)cc2-c2c(C#N)c(=O)n3[nH]c(-c4ccc(C)cc4)nc3c2C#N)cc1"
[out] 0 (no)

[in] Record request — test call for "CCOC(=O)NC1=C(N2CC2)C(=O)C(NC(=O)OCC)=C(N2CC2)C1=O"
[out] 0 (no)
